- assay.notes: ATG_NRF2_ARE_CIS: Attagene CIS-FACTORIAL HepG2 Assay for human Nuclear Factor Erythroid 2 Related Factor 2 (NFR2) response to Antioxidant Response Elements (ARE) (AID 2282992)
- measurement.context: HepG2 Attagene ARE/NRF2 reporter, transcription factor activity; actives raise or lower the signal
Activity calls are given as the source filed them. Rule for the calls: active = hit-call score of the fitted dose curve at least 0.9, where 1 is the maximum; inactive = score below 0.9.
I would appreciate it if you answered using one of these outcomes: Y (active), N (inactive)

Sample answers from the record:
COC(=O)/C=C\C(=O)O	Y
O=c1cc[nH]c(=S)[nH]1	N
CNC(=S)NN	N
S=C(NC1CCCCC1)NC1CCCCC1	N

[ask] Query: recorded result category for CC(=O)OC1C2(C)CCC(C2)C1(C)C (stereo not given) in this test
[reply] N

[ask] Query: recorded result category for O=C1CCCCCCCCCCCCCCCO1 in this test
[reply] Y

[ask] Query: recorded result category for O=C1CC2CC1C1CCCC21 (stereo not given) in this test
[reply] Y

[ask] Query: recorded result category for COCc1c(C(C)C)nc(C(C)C)c(/C=C/[C@@H](O)C[C@@H](O)CC(=O)O)c1-c1ccc(F)cc1 in this test
[reply] N

[ask] Query: recorded result category for CCCCCCCC(C)=O in this test
[reply] N

[ask] Query: recorded result category for NNC(=O)c1cccc(C(=O)NN)c1 in this test
[reply] N

[ask] Query: recorded result category for Cc1cc(C)c(C)c(O)c1 in this test
[reply] N

[ask] Query: recorded result category for CCOC(=O)CC in this test
[reply] N

[ask] Query: recorded result category for C=C(C)[C@@H]1CCC2=CCC[C@@H](C)[C@]2(C)C1 in this test
[reply] Y

[ask] Query: recorded result category for CCCCCCC(O)CO (stereo not given) in this test
[reply] N

[ask] Query: recorded result category for CCCc1ccc(OC)cc1 in this test
[reply] N
